Threshold 200 °C. melting point below it: YES. melting point at it or above: NO.

Previously resolved entries follow.
[[record]]
compound = "O=C1NCCn2nc(-c3ccncn3)c(-c3ccc(OCc4ccc(C5CC5)nc4)cc3)c21 [Compound 168]"
cat = "NO"

[[record]]
compound = "CC(C)c1ccc(COc2ccc(-c3c(-c4ccncc4)nn4c3C(=O)N(CCO)CC4)cc2)cc1O [Compound 79]"
cat = "NO"

[[record]]
compound = "COc1cccc(COc2ccc(-c3c(-c4ccncc4)nn4c3C(=O)NCC4)cc2)c1 [Compound 113]"
cat = "NO"

[[record]]
compound = "CC(C)c1ccc(COc2ccc(-c3c(-c4ccncc4)nn4c3C(=O)N(CCO)CC4)c(F)c2)cc1CCO [Compound 205]"
cat = "YES"

[[record]]
compound = "CC(C)c1ccc(COc2ccc(-c3c(-c4ccncc4)nn4c3C(=O)N(CC3COC(C)(C)O3)CC4)cc2)cc1 (stereo not shown) [Compound 42]"
cat = "YES"

[[record]]
compound = "CC(O)CN1CCn2nc(-c3ccncc3)c(-c3ccc(OCc4ccc(C(C)C)cc4)cc3)c2C1 (stereo not shown) [Compound 191]"
cat = "YES"


Turning now to a further record.
Prompt: Given the entry CC(C)NC(=O)CN1CCn2nc(-c3ccncc3)c(-c3ccc(OCc4ccc(C(C)C)cc4)cc3)c2C1=O [Compound 65] , would its reported melting point be below 200 °C?
Response: YES

###

Kindly return Yes if reported melting point is no lower than 200 °C; return No if it is lower.

[[record]]
compound = "CC(C)c1ccc(COc2ccc(-c3c(-c4ccncc4)nn4c3C(=O)N(CC(O)CO)CC4)c(F)c2)cc1 (stereo not shown) [Compound 22]"
cat = "No"

[[record]]
compound = "COCC(C)(C)c1ccc(COc2ccc(-c3c(-c4ccncc4)nn4c3C(=O)NCC4)cc2)cc1 [Compound 126]"
cat = "Yes"

[[record]]
compound = "CC(C)c1ccc(COc2ccc(-c3c(-c4ccncc4)nn4c3C(=O)N(CCC#N)CC4)cc2)cc1 [Compound 57]"
cat = "No"


Prompt: In plain terms: is recorded melting point at least 200 °C for CC(C)c1ccc(COc2ccc(-c3c(-c4ccncc4)nn4c3C(=O)N(CC(O)CO)CC4)c(F)c2)cc1 (stereo not shown) [Compound 23] ?
Response: No

Prompt: In plain terms: is recorded melting point at least 200 °C for CNC(=O)CN1CCn2nc(-c3ccncc3)c(-c3ccc(OCc4ccc(C(C)C)cc4)cc3)c2C1=O [Compound 63] ?
Response: No

Prompt: In plain terms: is recorded melting point at least 200 °C for CC(C)c1ccc(COc2ccc(-c3c(-c4ccncc4)nn4c3C(=O)N(CC(O)CO)CC4)cc2)cc1 (stereo not shown) [Compound 41] ?
Response: No

Prompt: In plain terms: is recorded melting point at least 200 °C for CC(C)c1cccc(COc2ccc(-c3c(-c4ccncc4)nn4c3C(=O)NCC4)cc2)c1 [Compound 110] ?
Response: Yes

###

What Ba/F3 Ros1 L2026M (-IL-3) pIC50 was measured for each of the following?
molecular target: Ba/F3 cells containing Ros1 with a mutation at the gatekeeper residue (L2026M) (Homo sapiens, UniProt P08922, L2026M, cells depend on it, form not given); test: Ba/F3-Ros1 cell proliferation assay, L2026M gatekeeper mutant; type: cell-based, murine; conditions: without IL-3
Sequence (P08922 whole entry L2026M, form open): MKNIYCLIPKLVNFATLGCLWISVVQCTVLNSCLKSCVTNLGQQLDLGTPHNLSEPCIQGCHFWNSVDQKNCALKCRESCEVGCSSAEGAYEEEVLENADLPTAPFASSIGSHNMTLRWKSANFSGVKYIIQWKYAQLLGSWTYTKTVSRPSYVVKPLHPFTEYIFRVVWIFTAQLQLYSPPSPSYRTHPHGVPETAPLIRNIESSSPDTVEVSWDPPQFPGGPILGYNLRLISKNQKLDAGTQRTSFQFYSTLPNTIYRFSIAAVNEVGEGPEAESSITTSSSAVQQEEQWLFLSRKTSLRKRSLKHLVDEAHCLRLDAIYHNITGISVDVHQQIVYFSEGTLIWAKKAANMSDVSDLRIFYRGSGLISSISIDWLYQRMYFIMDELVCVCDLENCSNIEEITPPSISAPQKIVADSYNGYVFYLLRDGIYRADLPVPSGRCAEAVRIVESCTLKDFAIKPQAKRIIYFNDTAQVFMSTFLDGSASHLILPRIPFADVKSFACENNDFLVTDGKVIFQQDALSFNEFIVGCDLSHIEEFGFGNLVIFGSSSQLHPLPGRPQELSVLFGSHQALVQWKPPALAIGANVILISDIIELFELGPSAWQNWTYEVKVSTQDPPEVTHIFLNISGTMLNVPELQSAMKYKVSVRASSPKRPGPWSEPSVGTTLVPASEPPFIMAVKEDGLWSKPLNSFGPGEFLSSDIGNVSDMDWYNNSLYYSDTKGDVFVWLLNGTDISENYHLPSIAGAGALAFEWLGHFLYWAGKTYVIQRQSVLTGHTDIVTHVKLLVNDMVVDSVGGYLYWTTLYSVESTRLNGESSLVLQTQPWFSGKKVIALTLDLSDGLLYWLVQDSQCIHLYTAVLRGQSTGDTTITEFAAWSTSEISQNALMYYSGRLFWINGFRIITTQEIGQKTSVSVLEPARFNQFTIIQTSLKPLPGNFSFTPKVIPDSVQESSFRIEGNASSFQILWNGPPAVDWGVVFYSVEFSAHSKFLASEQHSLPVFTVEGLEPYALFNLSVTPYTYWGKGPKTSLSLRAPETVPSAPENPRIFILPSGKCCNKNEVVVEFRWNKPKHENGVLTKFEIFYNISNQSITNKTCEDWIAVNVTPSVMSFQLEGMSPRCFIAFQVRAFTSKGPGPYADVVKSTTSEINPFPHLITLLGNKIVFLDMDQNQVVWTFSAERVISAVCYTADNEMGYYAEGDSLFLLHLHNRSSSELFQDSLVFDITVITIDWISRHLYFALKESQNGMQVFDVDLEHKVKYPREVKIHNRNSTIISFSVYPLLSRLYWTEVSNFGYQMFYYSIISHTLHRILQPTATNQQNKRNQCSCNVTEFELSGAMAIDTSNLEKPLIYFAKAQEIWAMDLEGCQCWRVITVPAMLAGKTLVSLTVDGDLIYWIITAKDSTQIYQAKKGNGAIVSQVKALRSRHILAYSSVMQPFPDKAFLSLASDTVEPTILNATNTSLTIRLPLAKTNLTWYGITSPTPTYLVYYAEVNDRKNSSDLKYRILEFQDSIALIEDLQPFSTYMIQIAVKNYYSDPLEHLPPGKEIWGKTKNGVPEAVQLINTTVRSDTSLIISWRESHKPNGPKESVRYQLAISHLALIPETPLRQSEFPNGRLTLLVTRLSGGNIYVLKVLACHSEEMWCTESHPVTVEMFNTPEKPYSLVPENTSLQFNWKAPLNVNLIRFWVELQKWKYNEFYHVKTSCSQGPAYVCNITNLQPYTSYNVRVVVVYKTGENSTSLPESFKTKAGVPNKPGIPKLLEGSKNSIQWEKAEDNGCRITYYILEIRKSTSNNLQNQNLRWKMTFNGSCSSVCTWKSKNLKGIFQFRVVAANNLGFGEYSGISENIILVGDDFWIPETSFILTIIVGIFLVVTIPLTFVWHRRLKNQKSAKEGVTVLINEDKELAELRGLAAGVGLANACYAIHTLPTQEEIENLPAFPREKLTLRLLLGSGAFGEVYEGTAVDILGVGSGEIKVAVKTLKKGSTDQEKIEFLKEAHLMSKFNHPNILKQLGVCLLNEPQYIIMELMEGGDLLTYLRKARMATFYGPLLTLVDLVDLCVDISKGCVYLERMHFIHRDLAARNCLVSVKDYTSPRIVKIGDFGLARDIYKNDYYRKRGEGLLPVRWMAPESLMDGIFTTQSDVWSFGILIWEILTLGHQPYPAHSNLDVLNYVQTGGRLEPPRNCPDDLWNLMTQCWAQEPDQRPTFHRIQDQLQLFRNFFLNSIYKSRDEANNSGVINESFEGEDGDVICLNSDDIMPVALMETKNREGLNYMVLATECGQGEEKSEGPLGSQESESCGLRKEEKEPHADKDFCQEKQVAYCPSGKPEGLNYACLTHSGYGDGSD
Numbers only.

Go through the list and state Ba/F3 Ros1 L2026M (-IL-3) pIC50 for each entry.
1. CC(C)NC(=O)CN1CCn2nc(-c3ccncc3)c(-c3ccc(OCc4ccc(C(C)C)cc4)cc3)c2C1=O
2. COc1cc(-c2c(-c3ccnc(N)c3)nn3c2C(=O)NCC3)ccc1OCc1ccc(C(C)C)cc1
3. O=C1NCCn2nc(-c3ccncc3)c(-c3ccc(OCc4ccc(C(F)(F)F)cc4)cc3)c21

Response:
6.7
7.4
6.9

Go through the list and state Ba/F3 Ros1 L2026M (-IL-3) pIC50 for each entry.
1. CC(C)c1ccc(COc2ccc(-c3c(-c4ccncc4)nn4c3C(=O)N(CCO)CC4)cc2)cc1F
2. O=C1c2c(-c3ccc(OCc4ccc(OC(F)(F)F)cc4)cc3)c(-c3ccncc3)nn2CCN1CCO
3. CC(C)c1ccc(COc2cnc(-c3c(-c4ccncc4)nn4c3C(=O)NCC4)cn2)cc1
4. CC(C)c1ccc(C2CCc3cc(-c4c(-c5ccncc5)nn5c4C(=O)N(CCO)CC5)ccc3O2)cc1 (stereo not drawn)
5. CNCCc1cc(COc2ccc(-c3c(-c4ccncc4)nn4c3C(=O)N(C)CC4)cc2)ccc1C(C)C

Response:
1. 7.0
2. 6.9
3. 7.0
4. 6.3
5. 7.4

Go through the list and state Ba/F3 Ros1 L2026M (-IL-3) pIC50 for each entry.
1. O=C1c2c(-c3ccc(OCc4ccc(C5CC5)cc4)cc3)c(-c3ccncn3)nn2CCN1CCO
2. c1cc(-c2nn3c(c2-c2ccc(OCc4ccc(C5CC5)cc4)cc2)CNCC3)ccn1

Response:
[6.2, 6.3]

Go through the list and state Ba/F3 Ros1 L2026M (-IL-3) pIC50 for each entry.
1. CCC(C)c1ccc(COc2ccc(-c3c(-c4ccncc4)nn4c3C(=O)N(CCO)CC4)cc2)cc1 (stereo not drawn)
2. O=C1c2c(-c3ccc(OCc4ccc(C5CC5)cc4F)cc3)c(-c3ccncc3)nn2CCN1CCO
3. COCCc1cc(COc2ccc(-c3c(-c4ccncc4)nn4c3C(=O)NCC4)cc2)ccc1C(C)C
4. O=C1NC2(CC2)Cn2nc(-c3ccncc3)c(-c3ccc(OCc4ccc(C5CC5)cc4)cc3)c21
5. CC(C)c1ccc(COc2ccc(-c3c(-c4ccncc4)nn4c3C(=O)N(CCO)CC4)cc2F)cc1

Response:
[7.4, 6.6, 7.2, 7.5, 8.0]
